All values here come from patent US20200270309A1.

Test system: xylene-induced ear swelling
testMethodNotes: Xylene-induced mouse ear swelling
Assay type: in vivo
conditionSummary: Kunming mice, dose 8 mg/kg, injected once a day for 5 days; right minus left ear piece weight 2 h after xylene
Marks after values point to notes of the source that are not given here. Peptide text beside a SMILES is read from it. * marks the point of attachment. X65 = O=C1C=CC(=O)N1c1cccc(CCCCCCCCCCCCC(=O)*)c1; X84 = O=C1C=CC(=O)N1c1ccccc1CCCCCCCCCCCCC(=O)*; X68 = O=C1C=CC(=O)N1c1ccccc1CCCCCCCCCCCC(=O)*; X63 = O=C1C=CC(=O)N1c1ccccc1CCCCCCC(=O)*
testReadout: Swelling degree (mg)

Quick note, Swelling degree (mg) for C[C@H](NC(=O)CNC(=O)[C@H](CCCNC(=N)N)NC(=O)CCCCCCCCCCCCc1ccccc1N1C(=O)C=CC1=O)C(=O)N[C@@H](CC(=O)O)C(=O)N[C@@H](CCCNC(=N)N)C(=O)N[C@@H](C)C(=O)NCC(=O)NCC(=O)NCC(=O)NCC(=O)N[C@@H](CCCNC(=N)N)C(=O)NCC(=O)N[C@@H](CC(=O)O)C(=O)O [X24] (X84-RGADRAGGGGRGD-OH) landed at 4.34 ± 0.68** mg

Quick note, Swelling degree (mg) for C[C@H](NC(=O)CNC(=O)[C@H](CCCNC(=N)N)NC(=O)CCCCCCc1ccccc1N1C(=O)C=CC1=O)C(=O)N[C@@H](CC(=O)O)C(=O)N[C@@H](CCCNC(=N)N)C(=O)N[C@@H](C)C(=O)NCC(=O)NCC(=O)NCC(=O)NCC(=O)N[C@@H](CCCNC(=N)N)C(=O)NCC(=O)N[C@@H](CC(=O)O)C(=O)O [X18] (X63-RGADRAGGGGRGD-OH) landed at 4.18 ± 0.9** mg

Quick note, Swelling degree (mg) for C[C@H](NC(=O)CNC(=O)[C@H](CCCNC(=N)N)NC(=O)CCCCCCCCCCCCc1cccc(N2C(=O)C=CC2=O)c1)C(=O)N[C@@H](CC(=O)O)C(=O)N[C@@H](CCCNC(=N)N)C(=O)N[C@@H](C)C(=O)NCC(=O)NCC(=O)NCC(=O)NCC(=O)N[C@@H](CCCNC(=N)N)C(=O)NCC(=O)N[C@@H](CC(=O)O)C(=O)O [X36] (X65-RGADRAGGGGRGD-OH) landed at 4.7 ± 0.97* mg

Quick note, Swelling degree (mg) for C[C@H](NC(=O)CNC(=O)[C@H](CCCNC(=N)N)NC(=O)CCCCCCCCCCCc1ccccc1N1C(=O)C=CC1=O)C(=O)N[C@@H](CC(=O)O)C(=O)N[C@@H](CCCNC(=N)N)C(=O)N[C@@H](C)C(=O)NCC(=O)NCC(=O)NCC(=O)NCC(=O)N[C@@H](CCCNC(=N)N)C(=O)NCC(=O)N[C@@H](CC(=O)O)C(=O)O [X23] (X68-RGADRAGGGGRGD-OH) landed at 3.47 ± 0.06** mg
